// provenance: the supplement of paper PMC10065799

phosphorylation enrichment values, listed per item
# Tested on: Fer (mouse);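 note: 11-residue human phosphosite peptides and single-mutation variants displayed on the E. coli surface, counted by deep sequencing, each peptide's frequency after selection divided by its frequency in the unselected input library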;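 note: frequency after pTyr selection over input frequency; kinase dosed for 20-30% of maximal phosphorylation in three min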
# assay: phosphorylation enrichment, bacterial display (enrichment ratio); higher = better substrate or ligand; peptides without Tyr show the background
I'd appreciate a reply containing only the number, no unit.

// known answers, use as guide
| record.sequence | phosphorylation enrichment |
| --- | --- |
| AKLVQYFMEHH [PTPN11_Y80_E76K_YF] | 0.445 |
| MIAIRYSHSRR [ACOXL_Y260_T255M] | 0.324 |
| RHPLDYLRQYP [NARS2_Y138_E137D] | 0.594 |
| LRSRVYEVPVE [SLC26A3_Y756_N753S] | 2.09 |
| MENFIYESMRY [CYP19A1_Y361] | 13.1 |
| ELTTCYRKKCC [CCBE1_Y70] | 0.393 |

Ask: For the sequence GLRYGYGVLGG [KRTAP20-2_Y15] , what phosphorylation enrichment is on record?
Result: 0.432

Ask: For the sequence MLNTNYHLPPS [MT-ATP8_Y33] , what phosphorylation enrichment is on record?
Result: 0.327

Ask: For the sequence KVKPIYLHTQG [AR_Y916_F917L] , what phosphorylation enrichment is on record?
Result: 0.438

Ask: For the sequence IRQDDYESLKE [MTR_Y921_H920D] , what phosphorylation enrichment is on record?
Result: 0.463

Ask: For the sequence SKKVRYVVSKA [BARD1_Y156] , what phosphorylation enrichment is on record?
Result: 0.36

Ask: For the sequence PSRKDYETYQS [CTNND2_Y1154_P1159S] , what phosphorylation enrichment is on record?
Result: 0.55
